Just for reference, ChEMBL document CHEMBL1201862 is where these values come from.

test system: LOX IMVI; experiment: NCI tumour cell line growth inhibition, 48 h
The source made the active and inactive calls. Cut-off read from the data, not from the text of the source: active = GI50 up to about 1.1 µM and inactive = higher.
recorded_metric: GI50

[
  {
    "compound": "Cn1c(=O)c2c(nc3n2CC(=O)N3CCCCl)n(C)c1=O",
    "recorded_result": "> 100 µM (inactive)"
  },
  {
    "compound": "O=C(CC1=Nc2nnc(-c3nnc4n3C(=O)C(CC(=O)C3CC3)=N4)n2C1=O)C1CC1",
    "recorded_result": "> 100 µM (inactive)"
  },
  {
    "compound": "CCCCCCCCCCCC(=O)OCC(C[As](=O)(O)O)OC(=O)CCCCCCCCCCC (stereo not drawn)",
    "recorded_result": "4.76 µM (inactive)"
  },
  {
    "compound": "CCN1CCC(O)(/C=C/c2ccc(C)cc2C)C(C(=O)/C=C/c2ccc(C)cc2C)C1 (stereo not drawn)",
    "recorded_result": "1.76 µM (inactive)"
  },
  {
    "compound": "C=C(NC(=O)C(=C)NC(=O)c1ccc2c(n1)-c1coc(n1)C(=C)NC(=O)C(=C)NC(=O)c1nc(oc1C)C(=C)NC(=O)C(C(C)(C)O)NC(=O)C(=C)NC(=O)c1coc(n1)/C(=C/C)NC(=O)[C@H]([C@@H](C)O)NC(=O)c1csc-2n1)C(N)=O (stereo partly drawn)",
    "recorded_result": "53.8 µM (inactive)"
  },
  {
    "compound": "O=C1C(=O)N(c2ccc(Cl)cc2)C(=O)/C(=N/c2cccc3c(=O)[nH][nH]c(=O)c23)C1c1nc2ccccc2o1 (stereo not drawn)",
    "recorded_result": "> 100 µM (inactive)"
  },
  {
    "compound": "COc1c(Br)cc(Br)c(OC)c1-c1[nH]c(Br)c(Br)c1Br",
    "recorded_result": "11.7 µM (inactive)"
  },
  {
    "compound": "COc1ccc2[nH]cc(C(=O)C(=O)NC34CC5CC(CC(C5)C3)C4)c2c1",
    "recorded_result": "7.21 µM (inactive)"
  }
]

* * *

GI50 for assorted molecules
tested on: SNB-75; test: NCI tumour cell line growth inhibition, 48 h
Calls of active or inactive are those of the source. Rule as the data show it: active = GI50 up to about 1.1 µM and inactive = higher. Where a SMILES comes first, the peptide text is derived from it. The star is where a group is joined. Cbz = O=C(OCc1ccccc1)*

[
  {
    "molecule": "O=C1c2ccccc2C(=O)c2c1ccc(O)c2O",
    "GI50": "28.2 µM (inactive)"
  },
  {
    "molecule": "COC(=O)C1(Cc2ccc3c(c2)CCC3)Cc2cc3c(cc2C1=O)CCC3 (stereo not drawn)",
    "GI50": "42.2 µM (inactive)"
  },
  {
    "molecule": "CCOC(=O)C(CC(=O)OC)NC(=O)C(CC(=O)OC)NC(=O)C(CC(=O)OC)NC(=O)C(CC(=O)OC)NC(=O)OCc1ccccc1 (stereo not drawn) (Cbz-D(OMe)D(OMe)D(OMe)D(OMe)-OEt; configuration not given here)",
    "GI50": "> 100 µM (inactive)"
  },
  {
    "molecule": "O=C1N(C2CCCCC2)CC12CCCCC2",
    "GI50": "> 100 µM (inactive)"
  },
  {
    "molecule": "N#CC1(c2nc3ccccc3o2)C(=O)C(=O)N(C2C3CC4CC(C3)CC2C4)C(=O)C1=O (stereo not drawn)",
    "GI50": "> 100 µM (inactive)"
  },
  {
    "molecule": "CC(C)(O)C1CC[C@]2(C)CC[C@]3(C)[C@H](CC[C@@H]4[C@@]5(C)CC[C@H](O)C(C)(C)[C@@H]5CC[C@]43C)[C@@H]12 (stereo partly drawn)",
    "GI50": "21.6 µM (inactive)"
  },
  {
    "molecule": "NC(=O)CN1CCN(c2nc(N3CCCC3)c3nc(Cl)c(NCc4ccccc4)nc3n2)CC1",
    "GI50": "10.7 µM (inactive)"
  },
  {
    "molecule": "O=[N+]([O-])c1cccnc1NCC1(CO)CC(Cc2ccccc2)C1 (stereo not drawn)",
    "GI50": "> 100 µM (inactive)"
  },
  {
    "molecule": "CSc1nc2nc(C)c(C)nc2c(=O)[nH]1",
    "GI50": "> 100 µM (inactive)"
  },
  {
    "molecule": "O=C(NNS(=O)(=O)c1ccccc1)c1cccnc1",
    "GI50": "> 100 µM (inactive)"
  },
  {
    "molecule": "O=C(N[C@@H]1C=CCC[C@@H]1c1ccccc1)OCc1ccccc1",
    "GI50": "19.6 µM (inactive)"
  },
  {
    "molecule": "Cc1ccc(S(=O)(=O)NC(=O)NC(CCCCNC(=N)N)C(=O)O)cc1 (stereo not drawn)",
    "GI50": "> 100 µM (inactive)"
  },
  {
    "molecule": "CCOC(=O)C(=O)C=P(c1ccccc1)(c1ccccc1)c1ccccc1",
    "GI50": "> 100 µM (inactive)"
  },
  {
    "molecule": "C=C(NC(=O)C(=C)NC(=O)c1ccc2c(n1)-c1coc(n1)C(=C)NC(=O)C(=C)NC(=O)c1nc(oc1C)C(=C)NC(=O)C(C(C)(C)O)NC(=O)C(=C)NC(=O)c1coc(n1)/C(=C/C)NC(=O)[C@H]([C@@H](C)O)NC(=O)c1csc-2n1)C(N)=O (stereo partly drawn)",
    "GI50": "> 87.5 µM (inactive)"
  },
  {
    "molecule": "CC1=NN(c2cccc(Cl)c2)C2(C1)C(Cl)C(=O)N2c1nc2ccccc2s1 (stereo not drawn)",
    "GI50": "21.6 µM (inactive)"
  },
  {
    "molecule": "CS(=O)(=O)c1n[nH]c2nc(O)nc(O)c12",
    "GI50": "> 10 µM (inactive)"
  },
  {
    "molecule": "Cc1ccc2nc(NC(=O)C(=O)C(C#N)c3ccc(Cl)cc3)sc2c1 (stereo not drawn)",
    "GI50": "> 50 µM (inactive)"
  },
  {
    "molecule": "CCCCCCCCCCCCCCCCOP(=O)(O)OP(=O)(O)OCC1OC(n2ccc(N)nc2=O)CC1O (stereo not drawn)",
    "GI50": "> 100 µM (inactive)"
  }
]
